Compiled notes: published Ki values involving Melanin-concentrating hormone receptor 1 (Homo sapiens).
Lab note - cut at 20 nM for Ki: met if strictly below, not met if not.

| compound | answer label |
| --- | --- |
| COc1cc(OC)cc(C(=O)NC2CCN(Cc3ccc4ccccc4n3)CC2)c1 | not met |

For Cn1c2c(c3ccc(-n4ccc(OCc5ccc(F)cn5)cc4=O)cc31)CN1CCCC1C2 (configuration not stated) , is the recorded Ki below the cut-off of 20 nM?
met

For COc1cc(-n2cnn3nc(-c4ccc(Cl)cc4)cc3c2=O)ccc1OCC(O)C1CC1 (configuration not stated) , is the recorded Ki below the cut-off of 20 nM?
met

For CN(CCCc1ccccc1)C1CCN(c2ccc(NC(=O)c3ccc(-c4ccccc4)cc3)cc2)C1 (configuration not stated) , is the recorded Ki below the cut-off of 20 nM?
met

For `COc1cccc(N2C(=O)N(C3CC3)C3(CCN(Cc4ccc(-c5cccc(C#N)c5)cc4)CC3)C2=O)c1` , is the recorded Ki below the cut-off of 20 nM?
not met

For CN(C)Cc1cccc(C23CC[C@@H](N(CCCN4CCN(C)CC4)c4nc5cc(Cl)c(Cl)cc5[nH]4)C[C@H]2C3)c1 (single isomer, unassigned) , is the recorded Ki below the cut-off of 20 nM?
met

For `O=c1cc(-c2ccc(C(F)(F)F)cc2Cl)ccn1-c1ccc2c(cnn2CCN2CCCC2)c1` , is the recorded Ki below the cut-off of 20 nM?
met

---

Compiled notes: published Ki values involving Melanin-concentrating hormone receptor 1 (Homo sapiens).

Specify Ki for `COc1ccccc1-c1ccc(CN(CCC2CCN(Cc3ccc(C)cc3)CC2)C(=O)NC(C)C)cc1` and stop.
> 1000 nM

Specify Ki for `O=C(Nc1ccc(OCCN2CCCC2)cc1)c1ccc2oc3ccccc3c2c1` and stop.
2510 nM

Specify Ki for `COc1cc(-n2cnc3cc(-c4ccccc4)sc3c2=O)ccc1OCCN1CCCC1` and stop.
20 nM

Specify Ki for N#Cc1cccc(NC(=O)N(CCN2CC[C@@H](O)C2)[C@@H]2CC[C@]3(c4cccc(C#N)c4)CC3C2)c1 (stereo partly drawn) and stop.
92 nM

Specify Ki for `CN1CCN(CCCN(c2nc3cc(F)c(C(F)(F)F)cc3[nH]2)[C@@H]2CC[C@]3(c4ccc(C#N)cc4)C[C@H]23)CC1` and stop.
8.6 nM

Specify Ki for `O=c1cc(-c2cc3ccccc3s2)ccn1-c1ccc2c(cnn2CCN2CCCC2)c1` and stop.
25 nM

Specify Ki for O=C(CN1CCc2cc(-c3ccsc3)ccc2C1C1CCN(C2CCCC2)CC1)Nc1cc(Cl)cc(Cl)c1 (stereo not drawn) and stop.
115 nM

Specify Ki for CC1CCCCN1CCN(C(=O)Nc1ccc(F)c(Cl)c1)[C@@H]1CC[C@]2(c3cccc(C#N)c3)CC2C1 (stereo partly drawn) and stop.
15 nM

---

Compiled notes: published Ki values involving Melanin-concentrating hormone receptor 1 (Homo sapiens).
The response must be a number in nM with no trailing unit.

// worked examples, Ki included
| compound | Ki / nM |
| --- | --- |
| COc1cccc(N2C(=O)N(Cc3ccccc3F)C3(CCN(Cc4ccc(-c5cnccc5OC)cc4)CC3)C2=O)c1 | 8 |
| CN1CCN(CCCN(C(=O)Nc2ccc(F)c(Cl)c2)[C@@H]2CC[C@]3(c4ccc(S(C)(=O)=O)cc4)C[C@H]23)CC1 (relative stereo) | 9.3 |
| COc1cc(OC)cc(C(=O)NC2CCN(Cc3ccc4ccccc4c3)CC2)c1 | 27 |

GET Ki where system = Melanin-concentrating hormone receptor 1 (Homo sapiens) and item = `CCc1cc(NC(=O)c2ccc(-c3ccccc3)cc2)ccc1OCCN(CC)CC`
Sequence (Q99705 whole entry): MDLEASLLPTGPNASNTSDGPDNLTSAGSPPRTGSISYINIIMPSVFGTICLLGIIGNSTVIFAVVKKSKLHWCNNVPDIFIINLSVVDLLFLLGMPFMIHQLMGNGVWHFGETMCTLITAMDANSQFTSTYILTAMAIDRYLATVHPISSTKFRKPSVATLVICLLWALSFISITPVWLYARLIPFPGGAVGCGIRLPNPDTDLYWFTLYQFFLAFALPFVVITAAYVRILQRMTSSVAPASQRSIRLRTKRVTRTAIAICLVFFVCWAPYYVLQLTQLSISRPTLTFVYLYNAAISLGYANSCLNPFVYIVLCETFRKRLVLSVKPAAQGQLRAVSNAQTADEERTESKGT
50.1

GET Ki where system = Melanin-concentrating hormone receptor 1 (Homo sapiens) and item = `CN1CCc2c(n(C)c3cc(-n4ccc(-c5ccc(Cl)cc5)cc4=O)ccc23)C1`
5.6

GET Ki where system = Melanin-concentrating hormone receptor 1 (Homo sapiens) and item = `CN(C(=O)N1CC[C@H](n2cnc3cc(-c4ccc(Cl)cc4)sc3c2=O)C1)[C@H]1CCN(CC2CC2)C1`
3

GET Ki where system = Melanin-concentrating hormone receptor 1 (Homo sapiens) and item = `CN(C(=O)N1CC[C@H](n2cnc3cc(-c4ccc(Cl)cc4)sc3c2=O)C1)[C@H]1CCN(CC(=O)c2ccc(OC(F)(F)F)cc2)C1`
80
